Where these numbers come from: ChEMBL document CHEMBL1140778

Exercise: for every item that follows, state its recorded pEC50.
Answer as the number alone; pEC50 is minus log10 of concentration in mol/L.

Challenge: Missing value: pEC50, Oxysterols receptor LXR-beta (Homo sapiens), entry `O=C(O)Cc1cccc2c(NCc3cccc(-c4c(Cc5ccccc5)cnc5c(C(F)(F)F)cccc45)c3)cccc12` . Fill in?
Response given: 6.45

Challenge: Missing value: pEC50, Oxysterols receptor LXR-beta (Homo sapiens), entry `O=C(O)Cc1cccc2c(NCc3cccc(-c4ccnc5c(C(F)(F)F)cccc45)c3)cccc12` . Fill in?
Response given: 6.21

Challenge: Missing value: pEC50, Oxysterols receptor LXR-beta (Homo sapiens), entry `Cc1cnc2c(C(F)(F)F)cccc2c1-c1cccc(CNc2cccc3c(CC(=O)O)cccc23)c1` . Fill in?
Response given: 5.38
